- systemTested: His6-ERα298-554 D538G mutant (ERα ligand-binding domain) (Homo sapiens (Human), UniProt P03372, D538G)
- Sequence (P03372 298-554 D538G): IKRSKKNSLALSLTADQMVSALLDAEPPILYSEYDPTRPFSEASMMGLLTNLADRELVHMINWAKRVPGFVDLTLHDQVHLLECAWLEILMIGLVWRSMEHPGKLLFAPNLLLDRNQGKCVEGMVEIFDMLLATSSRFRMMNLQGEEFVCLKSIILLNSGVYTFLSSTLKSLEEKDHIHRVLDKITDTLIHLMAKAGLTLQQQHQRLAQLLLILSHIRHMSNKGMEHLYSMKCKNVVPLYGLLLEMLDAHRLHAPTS
- testDetails: Test A: biochemical antagonist activity, LanthaScreen TR-FRET ERα coactivator assay, D538G mutant
- measurementParameters: asterisk (*): protocol using 10 nM estradiol; read-out: Antagonism D538G IC50
- Method: Test A: Biochemical Antagonist Activity on Wild Type (WT) and Mutants Estrogen Receptors Test A involves measuring the in vitro antagonist activity of the compounds of the invention on estrogen receptors. […] Antagonistic potency of compounds was evaluated using LanthaScreen® TR-FRET ERα Coactivator Assay (ThermoFisher) with modifications. […] The assay works in a homogeneous mix-and-read format. […]
Can you tell me log10 of IC50 for the items I'm about to list?
Base-10 log of IC50, unit nM.

// solved cases for log10 of IC50 follow
• Oc1ccc2c(c1)CCCC(c1ccc(Cl)c(F)c1)=C2c1cnc(O[C@H]2CCN(CCCF)C2)cn1 [Example 243] = 2.59
• Oc1ccc2c(c1)SCCC(c1ccc(OC(F)(F)F)cc1)=C2c1ccc(O[C@H]2CCN(CCCF)C2)cc1 [Example 214] = 2.73
• Oc1ccc2c(c1)SCC(c1ccc(OC(F)(F)F)cc1)=C2c1ccc(O[C@H]2CCN(CCCF)C2)cc1 [Example 54] = 3.48
• Cc1cc(C2=C(c3ccc(O[C@H]4CCN(CCCF)C4)cc3)c3ccc(C(=O)O)cc3SCC2)ccc1Cl [Example 211] = 2.98
• Oc1ccc2c(c1)SCCC(c1ccc(OC(F)(F)F)cc1F)=C2c1ccc(O[C@H]2CCN(CCCF)C2)cc1 [Example 212] = 2.90

Query CS(=O)(=O)c1ccc(C2=C(c3ccc(O[C@H]4CCN(CCCF)C4)cc3)c3ccc(O)cc3SCC2)cc1 [Example 194] yields log10 of IC50 of 2.31
